- target-under-test: PI3K β (p110β/p85α) (Homo sapiens, UniProt P42338)
- Construct: purchased Upstate / Millipore Corporation
- Sequence (P42338 whole entry): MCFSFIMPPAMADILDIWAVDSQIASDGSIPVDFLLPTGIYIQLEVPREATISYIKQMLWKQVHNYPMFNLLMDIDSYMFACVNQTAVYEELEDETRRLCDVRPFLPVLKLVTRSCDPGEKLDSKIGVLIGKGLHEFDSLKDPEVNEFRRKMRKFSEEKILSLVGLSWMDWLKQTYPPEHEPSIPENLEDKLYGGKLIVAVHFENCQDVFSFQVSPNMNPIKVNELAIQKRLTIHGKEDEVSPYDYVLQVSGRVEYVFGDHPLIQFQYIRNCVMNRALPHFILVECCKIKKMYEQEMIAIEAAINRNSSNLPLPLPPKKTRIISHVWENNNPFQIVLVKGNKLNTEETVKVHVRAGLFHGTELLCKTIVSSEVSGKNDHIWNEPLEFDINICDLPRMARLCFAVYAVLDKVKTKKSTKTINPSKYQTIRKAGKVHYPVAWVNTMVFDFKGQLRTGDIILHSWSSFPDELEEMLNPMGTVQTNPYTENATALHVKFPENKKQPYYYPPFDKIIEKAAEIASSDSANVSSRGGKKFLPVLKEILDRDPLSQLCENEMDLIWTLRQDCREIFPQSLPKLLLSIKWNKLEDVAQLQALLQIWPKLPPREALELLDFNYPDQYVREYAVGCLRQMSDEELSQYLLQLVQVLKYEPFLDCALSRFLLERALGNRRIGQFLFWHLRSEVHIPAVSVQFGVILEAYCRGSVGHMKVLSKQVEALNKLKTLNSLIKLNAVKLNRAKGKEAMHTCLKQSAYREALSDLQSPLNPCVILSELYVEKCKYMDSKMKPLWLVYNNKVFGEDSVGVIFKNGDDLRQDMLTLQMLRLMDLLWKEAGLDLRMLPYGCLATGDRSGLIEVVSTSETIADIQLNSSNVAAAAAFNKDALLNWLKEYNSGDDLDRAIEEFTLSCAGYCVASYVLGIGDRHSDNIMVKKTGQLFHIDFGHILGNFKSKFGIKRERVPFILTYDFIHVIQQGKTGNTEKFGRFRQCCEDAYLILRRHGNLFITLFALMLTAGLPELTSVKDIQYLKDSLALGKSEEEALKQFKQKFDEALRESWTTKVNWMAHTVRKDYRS
- Sequence (P27986 whole entry partner): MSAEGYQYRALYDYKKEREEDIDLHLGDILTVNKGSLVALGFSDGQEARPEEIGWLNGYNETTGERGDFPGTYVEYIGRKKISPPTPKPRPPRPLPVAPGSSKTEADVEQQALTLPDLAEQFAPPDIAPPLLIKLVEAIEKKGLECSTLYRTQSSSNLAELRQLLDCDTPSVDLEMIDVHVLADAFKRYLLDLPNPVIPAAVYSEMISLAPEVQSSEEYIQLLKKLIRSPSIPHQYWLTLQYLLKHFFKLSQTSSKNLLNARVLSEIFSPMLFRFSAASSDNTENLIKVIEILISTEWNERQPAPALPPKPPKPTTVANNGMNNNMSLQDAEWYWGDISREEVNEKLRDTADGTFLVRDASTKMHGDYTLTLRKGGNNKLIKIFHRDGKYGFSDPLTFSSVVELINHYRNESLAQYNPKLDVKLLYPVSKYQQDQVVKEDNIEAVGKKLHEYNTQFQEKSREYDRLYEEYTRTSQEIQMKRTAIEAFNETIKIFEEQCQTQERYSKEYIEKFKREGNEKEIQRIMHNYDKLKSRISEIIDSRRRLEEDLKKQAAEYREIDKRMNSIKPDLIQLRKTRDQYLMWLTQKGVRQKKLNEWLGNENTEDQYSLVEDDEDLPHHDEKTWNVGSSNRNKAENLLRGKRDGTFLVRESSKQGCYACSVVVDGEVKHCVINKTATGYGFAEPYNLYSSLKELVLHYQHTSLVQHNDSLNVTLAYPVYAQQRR
- assay-notes: PI 3-Kinase (human) HTRF assay, PI3K β
- Assay type: biochemical
- condition: read-out: PI3K β IC50
Attribute: IC50

INSERT INTO assay_data (compound, target_under_test, reported_value) VALUES
  ('Nc1nc2cc(-c3cccc4[nH]nc(N)c34)ccc2o1', 'PI3K β (p110β/p85α) (Homo sapiens, UniProt P42338)', '> 10 µM');

Recorded IC50 (compound CN(C)CCn1cnc2ccc(-c3ccc4oc(N)nc4c3)cc2c1=O ): > 10 µM

Recorded IC50 (compound CC(=O)N1CCC(Nc2ncnc3ccc(-c4ccc5oc(N)nc5c4)nc23)CC1 ): < 0.1 µM

Recorded IC50 (compound CCN(CC)CCCNc1cnc2ccc(-c3ccc4oc(N)nc4c3)cc2n1 ): < 1 µM

Recorded IC50 (compound CN1CCCN(c2cnc3ccc(-c4ccc5oc(N)nc5c4)cc3n2)CC1 ): < 1 µM

Recorded IC50 (compound O=C(c1cnc2ccc(-c3cnc4cn[nH]c4c3)cn12)N1CCOCC1 ): > 10 µM
